// provenance: PubChem BioAssay

# Target: NADPH oxidase 5 (Homo sapiens)
# Assay explanation: NOX5-dependent H2O2 signal modulators, primary screen, NOX inhibitor project, cell-based, HEK293-NOX5, Amplex Red fluorescence (AID 1161)
# Measurement setup: HEK293-NOX5, ionomycin, 45 min, higher = more signal

Item smiles | z-score
CCOC(=O)CCN1C(=O)[C@H]2[C@H]3[C@H](O)[C@H](O)CC(=NOCC(C)C)[C@H]3CC[C@H]2C1=O | 0.444
CCN1C(=O)[C@H]2[C@H]3[C@H](O)[C@H](O)CC(=O)[C@@H]3CC[C@H]2C1=O | 0.0328
CO[C@H]1COC(=O)CC=C[C@H](C)[C@@H](OC)COC(=O)[C@H](C)COC(=O)CC=C[C@@H]1C | -0.12
COC(=O)CC=C[C@@H](C)[C@@H](C=NOCC[C@@H]1C=C[C@H](OC(C)=O)[C@@H](COC(C)=O)O1)NS(=O)(=O)c1ccc(C)cc1 | -0.075

====

# Target: Carbonic anhydrase 2 (Homo sapiens) (UniProt P00918)
# Assay explanation: CAII small-molecule binders, profiling panel, biochemical, small-molecule microarray, Alexa647-labelled CAII (AID 1122)
# Measurement setup: CAII-A647 binding fluorescence, higher = more signal
TRUE means recorded composite z-score is 0.3 or above; FALSE means it is below 0.3.

Molecule | Label value
COC(=O)CC=C[C@@H](C)[C@@H](C=NOC(C)CN1CCCc2nc(C)c(C)cc21)OC (some centres undefined) | FALSE
CCOC(=O)[C@H](Cc1ccccc1)NC(=O)CCC1CC(OC(=O)NCc2ccc3c(c2)OCO3)CC2(CCCC(COC(=O)NCCc3ccccc3OC)O2)O1 (some centres undefined) | FALSE
C#CCCCON=C1C[C@@H](O)[C@@H](O)[C@@H]2[C@@H]3C(=O)N(c4ccc(F)cc4F)C(=O)[C@@H]3CC[C@H]12 | TRUE
C[C@H]1CC[C@H]2C(=O)O[C@H](COc3ccc(C(C)(C)C)cc3)CN2[C@@H]1c1ccc(Br)cc1 | FALSE
COc1ccc(COC(=O)NN=C2C[C@@H](O)[C@@H](O)[C@@H]3[C@@H]4C(=O)N(C5CCCCC5)C(=O)[C@@H]4CC[C@H]23)cc1 | FALSE
CCOC(=O)[C@H](CC(C)C)NC(=O)CCC1CC(OC(=O)NCc2cccc3ccccc23)CC2(CCCC(COC(=O)NCc3ccncc3)O2)O1 (some centres undefined) | FALSE
COC(=O)[C@H](C)NC(=O)CCC1CC(OC(=O)NCc2ccc3c(c2)OCO3)CC2(CCCC(COC(=O)NCCc3ccccc3OC)O2)O1 (some centres undefined) | TRUE
CCOC(=O)[C@H](CC(C)C)NC(=O)CCC1CC(OC(=O)NCc2cccc3ccccc23)CC2(CCCC(COC(=O)NCCCN3CCCC3=O)O2)O1 (some centres undefined) | TRUE
COC(=O)[C@H](C)NC(=O)CCC1CC(OC(=O)NCc2ccc3c(c2)OCO3)CC2(CCCC(COC(=O)NCC(c3ccccc3)c3ccccc3)O2)O1 (some centres undefined) | TRUE
CCOC(=O)[C@H](Cc1ccccc1)NC(=O)CCC1CC(OC(=O)NCc2cccc3ccccc23)CC2(CCCC(COC(=O)NCc3cccc(C(F)(F)F)c3)O2)O1 (some centres undefined) | FALSE
C#CCCCON=C1[C@H]2CCn3c(=O)n(C)c(=O)n3[C@H]2[C@H](O)[C@@H]2O[C@H]12 | FALSE
COC(=O)CC=C[C@@H](C)[C@@H](C=NOC[C@@H](O)[C@H]1O[C@@H]2OC(C)(C)O[C@@H]2[C@H]1O)NS(=O)(=O)c1ccc(C)cc1 | FALSE
CCc1cc2c(nc1CC)CCN(CCC(C)=NO[C@H](C)c1cn([C@H](CO)Cc3ccccc3)nn1)C2 | FALSE
O=C1[C@H]2[C@H]3[C@H](O)[C@H](O)CC(=NOCc4ccccc4)[C@@H]3CC[C@H]2C(=O)N1C[C@@H]1CCCO1 | FALSE
CCOC(=O)[C@H](CC(C)C)NC(=O)CCC1CC(OC(=O)NCc2ccc3c(c2)OCO3)CC2(CCCC(COC(=O)NCC(c3ccccc3)c3ccccc3)O2)O1 (some centres undefined) | TRUE
COCOc1ccc(Br)cc1C(=O)[C@@H]1O[C@H]1c1cccc(OC)c1 | FALSE
C[C@@H]1CC[C@H]2C(=O)O[C@@H](COc3ccc(C(C)(C)C)cc3)CN2[C@@H]1c1ccc(Br)cc1 | FALSE
O=C1CCCC=C1C(O)CCOC(c1ccccc1)(c1ccccc1)c1ccccc1 (centres undefined) | FALSE
Cc1cc2c(nc1C)CCCCN2CC(C)ON=C[C@@H](C)[C@H](OCc1ccccc1)C(C)C (some centres undefined) | FALSE
CO[C@H]1COC(=O)[C@H](C)NC(=O)[C@@H](C)COC(=O)[C@H]2CCCN2C(=O)CC=C[C@H]1C | FALSE
CCOC(=O)[C@H](Cc1ccccc1)NC(=O)CCC1CC(OC(=O)NCCc2ccc(F)cc2)CC2(CCCC(COC(=O)NCC3CCCCC3)O2)O1 (some centres undefined) | FALSE
COC(=O)[C@@H]1CC[C@H](C)[C@@H](c2ccc(C)cc2)N1C(=O)c1ccc(C=NO[C@H](C)c2cn([C@H](CO)Cc3ccccc3)nn2)cc1 | FALSE
CC[C@@H](c1ccccc1)n1c(=O)n2n(c1=O)[C@H]1[C@H](O)[C@@H]3O[C@@H]3C(=NOC[C@@H](O)COCc3ccco3)[C@H]1CC2 | FALSE
COc1cccc([C@H]2Oc3ccc(OC)cc3C(=NO[C@@H](C)c3cn([C@H](CO)Cc4ccccc4)nn3)[C@@H]2O)c1 | FALSE
O=C1[C@H]2[C@H]3[C@H](O)[C@H](O)CC(=NOC[C@@H](O)COCc4ccco4)[C@H]3CC[C@H]2C(=O)N1Cc1ccccc1 | FALSE
CC(C)(C)N1C(=O)[C@H]2[C@H]3[C@H](O)[C@H](O)CC(=NOCc4ccccc4)[C@H]3CC[C@H]2C1=O | FALSE
CO[C@H]1COC(=O)[C@@H](Cc2ccccc2)NC(=O)[C@@H](C)COC(=O)CCC[C@@H]1C | FALSE
C[C@H](ON=C1[C@H]2CCn3c(=O)n(-c4ccccc4)c(=O)n3[C@H]2[C@H](O)[C@@H]2O[C@H]12)c1cn([C@H](CO)Cc2ccccc2)nn1 | TRUE
CCOC(=O)[C@H](Cc1ccccc1)NC(=O)CCC1CC(OC(=O)NCc2ccc3c(c2)OCO3)CC2(CCCC(COC(=O)NCCC(C)C)O2)O1 (some centres undefined) | TRUE

====

# Assay explanation: PSAC antagonists in infected red cells, primary screen, cell-based, P. falciparum Indochina, OD700, 2 h (AID 1155);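 also: lysis reports solute entry through the parasite surface anion channel PSAC; channel blockers reduce lysis of infected cells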
# Measurement setup: P. falciparum Indochina infected erythrocytes, osmotic lysis OD700; higher = more signal, called active from +8 up or from −8 down
The source made the active and inactive calls.
In this section, each of the compounds is paired with its reported z-score.
Observed property: z-score

Compound | Observed property | Result
CCCCC#C[C@@H]1C=C[C@H](OC(C)=O)[C@@H](COC(C)=O)O1 | z-score | 0.364 (inactive)
COC(=O)[C@H](C)NC(=O)CCC1CC(OC(=O)NCc2cccc3ccccc23)CC2(CCCC(COC(=O)NCC(c3ccccc3)c3ccccc3)O2)O1 (some centres not stated) | z-score | -0.0825 (inactive)
COC(=O)CC=C[C@@H](C)[C@@H](C=NO[C@@H]1O[C@H](COC(C)=O)[C@@H](OC(C)=O)[C@H](OC(C)=O)[C@H]1OC(C)=O)OC | z-score | 0.547 (inactive)
O=C1[C@H]2[C@H]3[C@H](O)[C@H](O)CC(=NOC[C@@H](O)COCc4ccco4)[C@H]3CC[C@H]2C(=O)N1c1ccc(F)cc1F | z-score | -0.479 (inactive)
O=C1[C@H]2[C@H]3[C@H](O)[C@H](O)CC(=NOC[C@@H](O)COCc4ccco4)[C@H]3CC[C@H]2C(=O)N1Cc1ccccc1 | z-score | -0.599 (inactive)
CC(C)=CCCC(C)=CCON=C1C[C@@H](O)[C@@H](O)[C@@H]2[C@@H]3C(=O)N(C4CCCCC4)C(=O)[C@@H]3CC[C@@H]12 | z-score | 0.677 (inactive)
O=c1n(Cc2cc3c(cc2Cl)OCO3)c(=O)n2n1CC[C@@H]1C(=NOCc3ccccc3)[C@H]3O[C@H]3[C@@H](O)[C@@H]12 | z-score | -1.13 (inactive)

====

# Target: Torsin-1A-interacting protein 2 (Homo sapiens)
# Assay explanation: LULL1 binders on small-molecule microarray, primary screen, cell lysate, human LULL1 lysate, 635/667 nm fluorescence (AID 1092);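 also: probe is lysate of COS7 cells overexpressing human LULL1; score merges per-feature 667 nm fluorescence with signal-to-noise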
# Measurement setup: hLULL1 lysate binding, 635 nm fluorescence, higher = more signal

Item smiles | composite z-score
CCOC(=O)CCN1C(=O)[C@H]2[C@H]3[C@H](O)[C@H](O)CC(=NNC(=O)OCc4ccccc4)[C@@H]3CC[C@H]2C1=O | 0.967
C[C@H]1Cc2c(COc3ccccc3)nc3c(c2CO1)CN(CCOc1ccccc1)CC3 | 1.76
Cc1ccc(S(=O)(=O)N[C@H]2COC(=O)CC=C[C@H](C)[C@@H](NS(=O)(=O)c3ccc(C)cc3)COC(=O)CC=C[C@@H]2C)cc1 | 0.247
C#CCCCON=C1C[C@@H](O)[C@@H](O)[C@@H]2[C@@H]3C(=O)N(c4cccc(Oc5ccccc5)c4)C(=O)[C@@H]3CC[C@H]12 | -0.204
